- Assayed system: unlabeled human VEGF (ELISA coat) (human, UniProt P15692-4 27-191, limits assumed)
- Sequence (P15692 other isoform, or with tags, fused parts or gaps limits assumed): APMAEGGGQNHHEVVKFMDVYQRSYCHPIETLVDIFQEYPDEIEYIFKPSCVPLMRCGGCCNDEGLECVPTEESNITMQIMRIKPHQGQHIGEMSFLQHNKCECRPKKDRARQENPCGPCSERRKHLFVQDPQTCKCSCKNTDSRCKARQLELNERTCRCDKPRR
- Assay comment: ELISA 1 hr, EC50 WT/EC50 mutant
- Method: To detect identified variants binding to antigen, ELISA plates (Nunc-Immuno MaxiSorp plates, Nalge Nunc, Rochester, N.Y.) were coated overnight at 4° C. with unlabeled human VEGF at 1 μg/mL in 0.2 M sodium carbonate-bicarbonate buffer (pH 9.4, Pierce, Rockford, Ill.). […] After 30 minutes of incubation, plates were washed and bound antibodies were detected by addition of TMB 1 Component HRP Microwell substrate (BioFx #TMBW-1000-01). […]
Kind request: treat 2 fold as inclusive, so ELISA 1hr binding at 2 fold or higher is class 1, anything lower is class 0.

The following binders have reported results that may help.
H97 A (anti-VEGF IgG) (antibody, V domains shown, copies: 2 + 2) VH: EVQLVESGGGLVQPGGSLRLSCAASGYTFTNYGMNWVRQAPGKGLEWVGWINTYTGEPTYAADFKRRFTFSLDTSKSTAYLQMNSLRAEDTAVYYCAKYPAYYGSSHWYFDVWGQGTLVTVSS VL: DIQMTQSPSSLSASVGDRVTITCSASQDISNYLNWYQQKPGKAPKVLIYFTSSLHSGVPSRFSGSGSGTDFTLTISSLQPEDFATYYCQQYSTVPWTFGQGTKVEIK; class 1
T30 N (anti-VEGF IgG) (antibody, V domains shown, copies: 2 + 2) VH: EVQLVESGGGLVQPGGSLRLSCAASGYTFNNYGMNWVRQAPGKGLEWVGWINTYTGEPTYAADFKRRFTFSLDTSKSTAYLQMNSLRAEDTAVYYCAKYPHYYGSSHWYFDVWGQGTLVTVSS VL: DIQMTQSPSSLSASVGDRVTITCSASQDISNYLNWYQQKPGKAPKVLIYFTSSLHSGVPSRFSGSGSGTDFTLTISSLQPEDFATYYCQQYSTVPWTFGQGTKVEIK; class 1
T28 R (anti-VEGF IgG) (antibody, V domains shown, copies: 2 + 2) VH: EVQLVESGGGLVQPGGSLRLSCAASGYRFTNYGMNWVRQAPGKGLEWVGWINTYTGEPTYAADFKRRFTFSLDTSKSTAYLQMNSLRAEDTAVYYCAKYPHYYGSSHWYFDVWGQGTLVTVSS VL: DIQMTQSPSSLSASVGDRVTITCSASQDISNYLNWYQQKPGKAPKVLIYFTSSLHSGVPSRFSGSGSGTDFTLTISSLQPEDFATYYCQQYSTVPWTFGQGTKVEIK; class 0
S100a G (anti-VEGF IgG) (antibody, V domains shown, copies: 2 + 2) VH: EVQLVESGGGLVQPGGSLRLSCAASGYTFTNYGMNWVRQAPGKGLEWVGWINTYTGEPTYAADFKRRFTFSLDTSKSTAYLQMNSLRAEDTAVYYCAKYPHYYGGSHWYFDVWGQGTLVTVSS VL: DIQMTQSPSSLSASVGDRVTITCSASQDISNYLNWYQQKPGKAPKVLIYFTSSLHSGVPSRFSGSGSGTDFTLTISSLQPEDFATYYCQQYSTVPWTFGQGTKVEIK; class 1

Consider now this further binder.
[Q] # check: ELISA 1hr binding of N31 H (anti-VEGF IgG) (antibody, V domains shown, copies: 2 + 2) VH: EVQLVESGGGLVQPGGSLRLSCAASGYTFTHYGMNWVRQAPGKGLEWVGWINTYTGEPTYAADFKRRFTFSLDTSKSTAYLQMNSLRAEDTAVYYCAKYPHYYGSSHWYFDVWGQGTLVTVSS VL: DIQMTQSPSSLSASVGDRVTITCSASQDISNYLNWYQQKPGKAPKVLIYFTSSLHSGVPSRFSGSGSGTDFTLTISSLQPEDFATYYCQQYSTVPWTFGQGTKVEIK is greater than or equal to 2 fold
[A] class 1
